# assayed.system: SIRT3 (Homo sapiens)
# Sequence (Q9NTG7 102-399): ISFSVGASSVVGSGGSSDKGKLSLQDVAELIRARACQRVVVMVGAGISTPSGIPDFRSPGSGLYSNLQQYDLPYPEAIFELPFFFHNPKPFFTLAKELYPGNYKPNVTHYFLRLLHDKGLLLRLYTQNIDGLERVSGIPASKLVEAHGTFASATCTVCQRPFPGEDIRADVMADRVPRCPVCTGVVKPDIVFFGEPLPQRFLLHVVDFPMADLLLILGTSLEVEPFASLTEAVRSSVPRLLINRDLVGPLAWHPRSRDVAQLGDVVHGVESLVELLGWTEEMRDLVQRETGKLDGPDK
# protocol: SIRT3 deacetylation of Trp 5-mer peptide, OAADPr mass spec assay
# run.conditions: Trp SIRT3_IC50, Trp 5-mer peptide; class symbols
pIC50: −log10 of the molar value.
recorded.metric: pIC50

Study these solved cases before continuing.
# compound, observed
records = [
    ("NC(=O)c1cc2ncnc(N3CCN(CCNC(=O)C4CCCC4)CC3)c2s1 [Compound 63]", "> 6.00"),
    ("CC(C)(C)C(=O)N1CCC2(CCN(c3ncnc4cc(C(N)=O)sc34)CC2)C1 [Compound 186]", "> 6.00"),
    ("CNC(=O)c1cc2ncnc(N3CCC(CCNC(=O)C(C)(C)C)CC3)c2s1 [Compound 41]", "< 5.00"),
    ("Cc1nc(N2CCC(CN3CCCC3)CC2)c2sc(C(N)=O)cc2n1 [Compound 147]", "5.00 to 6.00"),
    ("Cc1nc(N2CCC(CCNC(=O)C(C)(C)C)CC2)c2sc(C(N)=O)cc2n1 [Compound 159]", "5.00 to 6.00"),
    ("NCCC1CCN(c2nccc3cc(C(N)=O)sc23)CC1 [Compound 175]", "< 5.00"),
    ("NCC1CCN(c2ncnc3cc(C(N)=O)sc23)CC1 [Compound 59]", "< 5.00"),
    ("CC(C)(C)C(=O)NCCC1CCN(c2ncnc3ccsc23)CC1 [Compound 42]", "< 5.00"),
]

Reported pIC50 for NC(=O)c1cc2ccnc(N3CCC(CN4CCCC4)CC3)c2s1 [Compound 170] : what is it?
5.00 to 6.00

What do you get for NC(=O)c1cc2ncnc(N3CCC(CCO)CC3)c2o1 [Compound 93] ?
> 6.00

What do you get for NC(=O)c1cc2ncnc(N3CCC(CCO)CC3)c2s1 [Compound 50] ?
> 6.00

What do you get for COCCC1CCN(c2nc(C)nc3cc(C(N)=O)sc23)CC1 [Compound 148] ?
5.00 to 6.00

What do you get for CC(C)(C)OC(=O)N1CCC(C2CCN(c3ncnc4cc(C(N)=O)oc34)CC2)CC1 [Compound 94] ?
< 5.00

What do you get for NC(=O)c1cc2ncnc(N3CCC(CN4CCCC4)CC3)c2o1 [Compound 90] ?
> 6.00

What do you get for NCCNC(=O)c1cccc(C(=O)NCCN2CCN(c3ncnc4ccsc34)CC2)c1 [Compound 191] ?
< 5.00

What do you get for Cc1nc(N2CCN(CCN)CC2)c2sc(C(N)=O)cc2n1 [Compound 153] ?
5.00 to 6.00

What do you get for CC(C)(C)OC(=O)NCCC1CCN(c2nccc3cc(C(N)=O)sc23)CC1 [Compound 168] ?
5.00 to 6.00
